These data points were gathered from patent US11535643B2.

System: S. pyogenes
Assay comment: Broth dilution MIC determination (CLSI) against S. pyogenes strains
Assay type: cell-based
Experimental setup: S. pyogenes ATCC19615, strain MP-19 (Table N2)
MIC values for the molecules below.

{"columns": ["Molecule", "Sign qualifier", "MIC / µg/mL"],
 "data": [
  ["CCC1OC(=O)C(C)C(=O)C(C)C(OC2OC(C)CC(N(C)CC#N)C2O)C(C)(OC)CC(C)CNC(C)C2N(CCCCn3cc(-c4cccc(N)c4)nn3)C(=O)OC12C (centres unmarked) [FSM-120371]", "=", 0.125],
  ["CCC1OC(=O)C(C)C(=O)C(C)C(OC2OC(C)CC(N3CCOC3CO)C2O)C(C)(OC)CC(C)CNC(C)C2N(CCCCn3cc(-c4cccc(N)c4)nn3)C(=O)OC12C (centres unmarked) [FSM-120380]", "=", 8],
  ["CCC1OC(=O)C(C)C(=O)C(C)C(OC2OC(C)CC(N(CCO)CCO)C2O)C(C)(OC)CC(C)CNC(C)C2N(CCCCn3cc(-c4cccc(N)c4)nn3)C(=O)OC12C (centres unmarked) [FSM-120379]", "=", 4],
  ["CCC1OC(=O)C(C)C(=O)C(C)C(OC2OC(C)CC(NCc3cccnc3)C2O)C(C)(OC)CC(C)CNC(C)C2N(CCCCn3cc(-c4cccc(N)c4)nn3)C(=O)OC12C (centres unmarked) [FSM-120384]", "=", 1],
  ["CCC1OC(=O)C(C)C(=O)C(C)C(OC2OC(C)CC(N(C)Cc3cccnc3)C2O)C(C)(OC)CC(C)CNC(C)C2N(CCCCn3cc(-c4cccc(N)c4)nn3)C(=O)OC12C (centres unmarked) [FSM-120385]", "<", 0.03]
]}

----------
System: S. aureus
Assay comment: Broth dilution MIC determination (CLSI) against S. aureus strains
Format: cell-based
Experimental setup: Staphylococcus aureus, read-out: MIC S. aureus erm A genotype
MIC values for the compounds below.

{"columns": ["Compound", "System name", "MIC"],
 "data": [
  ["CC[C@H]1OC(=O)[C@H](C)C(=O)[C@H](C)[C@@H](O[C@@H]2OC(Cn3cc(-c4cnc(N)s4)nn3)CC(N(C)C)C2O)[C@](C)(OC)C[C@@H](C)CN[C@H](C)[C@H]2N(CCCCn3cc(-c4cccc(N)c4)nn3)C(=O)O[C@]12C (stereo partly drawn)", "S. aureus", "> 32 µg/mL"],
  ["CC[C@H]1OC(=O)[C@H](C)C(=O)[C@H](C)[C@@H](O[C@@H]2OC(CNC(=O)c3ccccn3)CC(N(C)C)C2O)[C@](C)(OC)C[C@@H](C)CN[C@H](C)[C@H]2N(CCCCn3cc(-c4cccc(N)c4)nn3)C(=O)O[C@]12C (stereo partly drawn)", "S. aureus", "> 32 µg/mL"],
  ["CC[C@H]1OC(=O)[C@H](C)C(=O)[C@H](C)[C@@H](O[C@@H]2OC(CNS(=O)(=O)c3cccnc3)CC(N(C)C)C2O)[C@](C)(OC)C[C@@H](C)CN[C@H](C)[C@H]2N(CCCCn3cc(-c4cccc(N)c4)nn3)C(=O)O[C@]12C (stereo partly drawn)", "S. aureus", "> 32 µg/mL"]
]}

----------
Test system: P. aeruginosa
Assay comment: Broth dilution MIC determination (CLSI) against P. aeruginosa strains
Assay type: cell-based
Experimental setup: ATCC27853, Strain No. MP-3
MIC P. aeruginosa ATCC27853 values for the compounds below.

{"columns": ["Compound", "MIC P. aeruginosa ATCC27853"],
 "data": [
  ["CCC1OC(=O)C(C)C(=O)C(C)C(OC2OC(C)CC(n3ccnc3)C2O)C(C)(OC)CC(C)CNC(C)C2N(CCCCn3cc(-c4cccc(N)c4)nn3)C(=O)OC12C (stereo not shown)", ">64 µg/mL"],
  ["CCC1OC(=O)C(C)C(=O)C(C)C(OC2OC(C)CC(N3CCOCC3)C2O)C(C)(OC)CC(C)CNC(C)C2N(CCCCn3cc(-c4cccc(N)c4)nn3)C(=O)OC12C (stereo not shown)", ">64 µg/mL"],
  ["CCC1OC(=O)C(C)C(=O)C(C)C(OC2OC(C)CC(n3cccc3)C2O)C(C)(OC)CC(C)CNC(C)C2N(CCCCn3cc(-c4cccc(N)c4)nn3)C(=O)OC12C (stereo not shown)", ">32 µg/mL"],
  ["CCC1OC(=O)C(C)C(=O)C(C)C(OC2OC(C)CC(NCC(=O)O)C2O)C(C)(OC)CC(C)CNC(C)C2N(CCCCn3cc(-c4cccc(N)c4)nn3)C(=O)OC12C (stereo not shown)", ">64 µg/mL"],
  ["C=CCOCC1CC(N(C)C)C(O)C(OC2C(C)C(=O)C(C)C(=O)OC(CC)C3(C)OC(=O)N(CCCCn4cc(-c5cccc(N)c5)nn4)C3C(C)NCC(C)CC2(C)OC)O1 (stereo not shown)", "32 µg/mL"],
  ["CCC1OC(=O)C(C)C(=O)C(C)C(OC2OC(C)CC(NCC#N)C2O)C(C)(OC)CC(C)CNC(C)C2N(CCCCn3cc(-c4cccc(N)c4)nn3)C(=O)OC12C (stereo not shown)", ">64 µg/mL"],
  ["CCC1OC(=O)C(C)C(=O)C(C)C(OC2OC(CNCc3ccc(F)cc3)CC(N(C)C)C2O)C(C)(OC)CC(C)CNC(C)C2N(CCCCn3cc(-c4cccc(N)c4)nn3)C(=O)OC12C (stereo not shown)", "64 µg/mL"]
]}
